tested on: NOMO1; experiment: AUC of viability dose-response curve (% viability x log10 dose units); higher = less sensitive; details: RPMI 5 mM glucose + 10% FBS; 48 h
TEST_READOUT: AUC of viability dose-response curve

Below, 5 compounds whose answers are already recorded.
Memo: FC1=C(C=C(C\C2=N\NC(=O)C3=C2C=CC=C3)C=C1)C(=O)N4CCN(CC4)C(=O)C5CC5 , reported AUC of viability dose-response curve: 400

Form field AUC of viability dose-response curve, entry Cc1nc2cnc3ccc(C#Cc4cccnc4)cc3c2n1-c1ccc(C(C)(C)C#N)cc1 : 259

NC\1=N\C(=O)N(\C=C1)[C@@H]2O[C@H](CO)[C@@H](O)[C@@H]2O has a reported AUC of viability dose-response curve of 201

// sample CNC(=O)c1c(-c2ccc(F)cc2)oc2cc(N(CCO)[S+](C)(=O)[O-])c(C3CC3)cc12 , its AUC of viability dose-response curve was 412

# AUC of viability dose-response curve of COCC1(CO)C(=O)C2CCN1CC2 (stereo not given) = 446

Hi there! I need AUC of viability dose-response curve for each item below, if you can.
1. COC(=O)Nc1nc2cc(C(=O)c3ccccc3)ccc2[nH]1
2. NC/1=N/C(=O)C2=C(N1)[N](C=N2)[C@@H]3C[C@H](O)[C@@H](CO)C3=C
3. O=C1NC(=O)/C(=C/c2ccc3nccc(-c4ccncc4)c3c2)S1
4. ClC1=C[NH]N=C1C\2NC(=N\C3=C2C(=O)CCC3)/NC4=NC5=CC=CC=C5O4 (stereo not given)
5. NC(=O)c1cccnc1
6. CC(=O)O[C@@]1(CC[C@H]2[C@@H]3\C=C(Cl)/C4=C/C(=O)[C@@H]5C[C@@H]5[C@]4(C)[C@H]3CC[C@]12C)C(C)=O

**Result**
1: 389; 2: 423; 3: 351; 4: 463; 5: 464; 6: 322

====

Hi there, I'd appreciate the recorded AUC of viability dose-response curve for every entry that follows.
test system: SEM cells; test: AUC of viability dose-response curve (% viability x log10 dose units); higher = less sensitive; conditions: RPMI 5 mM glucose + 10% FBS; 48 h
Answers are plain numbers.

Lab note: measured AUC of viability dose-response curve of OC[C@H]1O[C@@H](OCCc2ccc(O)cc2)[C@H](O)[C@@H](O)[C@@H]1O was 432

For record C[C@@]12C(=O)OC(=O)[C@@]1(C)C1CCC2O1 the listed AUC of viability dose-response curve is 392

The recorded AUC of viability dose-response curve for C[C@]12CC[C@H]3[C@@H](CC[C@H]4NC(=O)\C=C/[C@]34C)[C@@H]1CC[C@@H]2C(=O)NC5=CC(=CC=C5C(F)(F)F)C(F)(F)F is 456

The recorded AUC of viability dose-response curve for CC(C)(CO)[C@@H](O)C(=O)NCCC(=O)O is 471

Field AUC of viability dose-response curve (entry CC1CNc2c(cccc2[S+](=O)([O-])N[C@@H](CCCNC(=N)N)C(=O)N2CC[C@@H](C)C[C@@H]2C(=O)O)C1 (stereo partly drawn) ) reads 450

Summary for this compound, O=C(O)C1(Cc2cccc(Nc3nccs3)n2)CCC(Oc2cccc(Cl)c2F)CC1 (stereo not drawn) : AUC of viability dose-response curve is 369

Look up AUC of viability dose-response curve for the entries below, preserving their order.
1. COc1cc(F)c(F)c(Nc2ccc(I)cc2F)c1N[S+](=O)([O-])C1(C[C@H](O)CO)CC1
2. N#Cc1ccc(COC[C@H]2O[C@@H](n3c(NCc4ccc(Cl)c(Cl)c4)nc4c(N)ncnc43)[C@H](O)[C@@H]2O)cc1

**Result**
1: 443; 2: 411
